Ref: a melting point compilation (Tetko et al.)

Stated Conditions: a range is the spread between reports
Property Label: melting point

So what's the measured melting point for this one? O=[N+]([O-])c1ccc(F)c([N+](=O)[O-])c1
25.8 to 27 °C

Answer for every listed entry: what is its melting point? The entries follow.
1. Brc1ccccc1-c1ccccc1
2. ClCc1ccc(Cl)cc1Cl
3. O=C1CCN(c2ccccc2)N1
4. COC1=CC(=O)C=C(OC)C1=O
5. BrCCBr
6. Fc1ccc(-c2ccccc2)cc1
7. Cc1ccc(C)c(N)c1
8. C=C(C)OC(C)=O

1. 1 to 2 °C
2. -3 to -2.6 °C
3. 122 to 126 °C
4. 253 to 256 °C
5. 9.9 to 10 °C
6. 74 to 74.2 °C
7. 12 to 15.5 °C
8. -93 to -92.9 °C

Answer for every listed entry: what is its melting point? The entries follow.
1. Cc1ccccc1C(=O)O
2. CC(=O)c1cccc(Br)c1
3. Cc1ccc2cccc(O)c2n1
4. Oc1ccccc1-c1nc2ccccc2s1
5. Clc1ccccc1Cl
6. OCCNCCO
7. CC(C)C(=O)OC(=O)C(C)C

1: 104 to 108 °C; 2: 7.5 to 8 °C; 3: 72 to 73.8 °C; 4: 131 to 132 °C; 5: -18 to -16.7 °C; 6: 28 to 29 °C; 7: -56 to -53.5 °C
